# target: T1, full-length PcrV.6xhis (Pseudomonas aeruginosa)
# T1 construct: Recombinant full-length V-tip protein of the type 3 secretion system, His-tagged; also called full-length PcrV with a C-terminal hexahistidine tag
# assay procedure: SPR (Biacore T200), mAb captured via anti-human Fc, PcrV injected, 25 C
readout: t½

*Q* Supply recorded t½ for H1H29339P (antibody, V domains shown) VH: EVQLVESGGDLVQPGGSLRLSCAASGFTFNTYAMNWVRQAPGKGLEWVAVIGGSGYSTNYADSVKGRFTISRDNSKNTLYLQMNSLRTEDTAVYYCAKEGNIVALYWYFDLWGRGTLVTVSS VL: DIQMTQSPSSLSASVGDRVTITCRASQSISRYLNWYQQKPGKAPKLLIYAASSLQGGVPSKFSGSGSGTDFTLTISSLQPEDFATYYCQQSSTTPLTFGGGTKVEIKR here.
*A* ≥ 19.2 h

*Q* Answer with the recorded t½ for the binder listed here: H1H29332P (antibody, V domains shown) VH: EVQLVESGGDLVQPGGSLRLSCKASGFTFSTFAMNWVRQAPGRGLEWVSAIGASGYSTYYVDSMKGRFTISRDNSKNTLYLQMNSLGAEDTAVYYCAKEYSVSSNYYYGMDVWGQGTTVTVSS VL: DIQMTQSPSSLSASVGDRVTITCRASQTIRRYLNWYQQKAGKAPKLLIYAASSLLSGVPSRFSASGSGTDFTLTISSLQPEDFSTYYCQQTYSIPITFGQGTRLEIKR
*A* 14.8 h

*Q* Please report t½ for the following binder: H1H29336P (antibody, V domains shown) VH: EVQLVESGGGLVQPGGSLRLSCAASGFTFSSYAMTWVRQAPGKGLEWVSSIRGSGYSSDYADSVKGRFTISRDNSENTVYLQMNRLRAEDTAVYYCAKERSVTAYYYYGMDVWGQGTTVTVSS VL: DIQLTQSPSFLSASVGDRVTITCWASQDISSFLTWYQQKPGIAPKLLIYTASTLQSGVPSRFSGSGSGTEFTLTISSLQPEDFATYYCQQLKSYPLTFGGGTKVEIKR
*A* ≥ 19.2 h

*Q* Give the reported t½ for this binder. REGN3514 (antibody, V domains shown, also called Control I; Control I-REGN3514) VH: EMQLLESGGGLVQPGGSLRLSCAASGFTFSSYAMNWVRQAPGEGLEWVSAITISGITAYYTDSVKGRFTISRDNSKNTLYLQMNSLRAGDTAVYYCAKEEFLPGTHYYYGMDVWGQGTTVTVSS VL: AIQMTQSPSSLSASVGDRVTITCRASQGIRNDLGWYQQKPGKAPKLVIYSASTLQSGVPSRFSGSGSGTDFTLSISSLQPDDFATYYCLQDYNYPWTFGQGTKVEIKR
*A* 4.94 h

*Q* Answer with the recorded t½ of REGN3977 (antibody, V domains shown, also called Control III; REGN3977-Control III) VH: QVQLKQSGPGLVQPSQSLSITCTVSGFSLTSYGVHWVRQSPGKGLEWLGVIWSGGDTDYNAAFISRLSISKDNSKSQLFFKMNSLRATDTAIYYCARNRGDIYYDFTYAMDYWGQGTSVTVSS VL: DIQMTQSPASLSASVGETVTITCRASGNIQNYLAWYQQTQGKSPQLLVYSAKTLADGVPSRFSGSGSGTQYSLKINSLQPEDFGSYYCQHFWSTPYTFGGGTKLEIKR only.
*A* 0.39 h

*Q* Look up and report measured t½ for this entry: H1H29329P (antibody, V domains shown) VH: EVQLVESGGGLVQPGGSLRLSCAASGFTFSDHEMNWVRQAPGKGLEWISYIGSGVVTMYYADSVRGRFTISRDNAKKTLYLQMNSLRAEDTAVYYCARDRGYYFGSEAFHYWGQGTLVTVSS VL: DIQMTQSPSTLSASVGDRVTITCRASQSISNWLAWYQQKPGKAPKLLIYKSSSLESGVPSRFSGSGSGTEFTLTISSLQPDDFATYYCQQYKSYSLTFGGGTKVEIKR
*A* 0.203 h
